Data origin, for the record: patent EP4624487A1

- measured_on: antiserum B1
- assay_procedure: competition ELISA: peptide added to B1 on plate-bound hTNFα
Recorded inhibition rate (%) by entry
readout_name: inhibition rate (%)

- binder: "NGVELRDNQLVVPSE [hTNFα peptide T(39-53)]"
  units_of_measure: "%"
  recorded_result: 23
- binder: "PCQRETPEGAEAKPW [hTNFα peptide T(100-114)]"
  units_of_measure: "%"
  recorded_result: 14
- binder: "LTHTISRIAVSYQTK [hTNFα peptide T(76-90)]"
  units_of_measure: "%"
  recorded_result: 13
- binder: "VRSSSRTPSDKPVAH [hTNFα peptide T(1-15)]"
  units_of_measure: "%"
  recorded_result: 13
- binder: "RRANALLANGVELRD [hTNFα peptide T(31-45)]"
  units_of_measure: "%"
  recorded_result: 91
- binder: "DRLSAEINRPDYLDF [hTNFα peptide T(130-144)]"
  units_of_measure: "%"
  recorded_result: 9
- binder: "VVANPQAEGQLQWLN [hTNFα peptide T(16-30)]"
  units_of_measure: "%"
  recorded_result: 9
